biological target: human ether-à-go-go-related gene (hERG) potassium channel (human); assay: primary screen, population patch clamp on CHO cells stably expressing hERG; higher = less effect of the substance
The whole screen tested about 310,000 compounds, of which about 14,000 (4.5%) showed an effect of 50% or more. Effects have a minus sign here. The list comes from a sample in which strong results are over-represented; it also holds close analogues and randomly drawn compounds.
Everything with hERG current change (%, negative = inhibition) at 10uM lower than -10% is rule not met; everything else, including exactly -10%, is rule met.

(Q) // inclusive: hERG current change (%, negative = inhibition) at 10uM at least -10%? input: Cc1cccc2c1cnn2C(=O)CCC(=O)N1CCC(C)CC1
(A) rule not met

(Q) // inclusive: hERG current change (%, negative = inhibition) at 10uM at least -10%? input: COc1ccccc1OCCNC(=O)c1cc([N+](=O)[O-])cc([N+](=O)[O-])c1
(A) rule met

(Q) // inclusive: hERG current change (%, negative = inhibition) at 10uM at least -10%? input: CC(=NCCN1CCN(C(C)=C2C(=O)c3ccccc3C2=O)CC1)C1=C(O)CC(C)(C)CC1=O
(A) rule not met

(Q) // inclusive: hERG current change (%, negative = inhibition) at 10uM at least -10%? input: N#CCCN1CCCc2cc(N=Nc3ccc(C(F)(F)F)cc3)ccc21
(A) rule met

(Q) // inclusive: hERG current change (%, negative = inhibition) at 10uM at least -10%? input: CCOC(=O)CSc1nnc([C@H](Cc2ccccc2)NC(=O)OC(C)(C)C)o1
(A) rule not met

---

molecular target: human ether-à-go-go-related gene (hERG) potassium channel (human); assay: primary screen, population patch clamp on CHO cells stably expressing hERG; higher = less effect of the substance;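 further: peak tail current of the secondary pulse compared with the same well before compound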
About 14,000 (4.5%) of roughly 310,000 compounds showed an effect of 50% or more. The effect is printed as a negative number. For the sample, strong results were picked, then their nearest neighbours and some compounds at random.
Would you mind telling me the reported hERG current change (%, negative = inhibition) at 10uM of each entry?
Reply numerically in %, unit not repeated.

Recorded hERG current change (%, negative = inhibition) at 10uM (compound c1ccc(N2CCN(c3ncnc4scc(-c5cccs5)c34)CC2)cc1 ): 9.87

Recorded hERG current change (%, negative = inhibition) at 10uM (compound Cc1ccc(-c2csc3ncnc(N4CCN(C(=O)c5ccccc5)CC4)c23)cc1 ): -30.5

Recorded hERG current change (%, negative = inhibition) at 10uM (compound Cc1ccc(-c2csc3ncnc(N4CCN(C(=O)c5ccco5)CC4)c23)cc1 ): -89.9

Recorded hERG current change (%, negative = inhibition) at 10uM (compound COC(=O)CNC(=O)c1ccc(C)s1 ): -0.614

Recorded hERG current change (%, negative = inhibition) at 10uM (compound CC(=O)N1CCCC(C(=O)c2ccc3c4c(cccc24)CC3)C1 (stereo not shown) ): -8.18

Recorded hERG current change (%, negative = inhibition) at 10uM (compound O=C(c1cccs1)N1CCCN(c2ncnc3scc(-c4ccccc4)c23)CC1 ): -60.7

Recorded hERG current change (%, negative = inhibition) at 10uM (compound CN1CCC(C(=O)N2CCCC(C(=O)c3ccc4c5c(cccc35)CC4)C2)CC1 (stereo not shown) ): -61.1

Recorded hERG current change (%, negative = inhibition) at 10uM (compound Fc1ccc(-c2csc3ncnc(N4CCN(c5ccccc5)CC4)c23)cc1 ): 16.2

Recorded hERG current change (%, negative = inhibition) at 10uM (compound c1coc(CNc2nc3ccccc3s2)c1 ): 11.1

Recorded hERG current change (%, negative = inhibition) at 10uM (compound CC(=O)Nc1ccc(NC(=O)COc2ccc3c(c2)CCC3)cc1 ): 24.5

---

Would you mind telling me the reported hERG current change (%, negative = inhibition) at 10uM of each entry?
target: human ether-à-go-go-related gene (hERG) potassium channel (human); assay: primary screen, population patch clamp on CHO cells stably expressing hERG; higher = less effect of the substance;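 further: peak tail current of the secondary pulse compared with the same well before compound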
Out of some 310,000 compounds screened, about 14,000 (4.5%) showed an effect of 50% or more. Effects have a minus sign here. The full list was thinned out, with strong results kept by preference.
Reply numerically in %, unit not repeated.

Recorded hERG current change (%, negative = inhibition) at 10uM (compound CCCCOC(=O)c1sc2nc(N3CCOCC3)c3c(c2c1N)CC(C)(C)OC3 ): 9.29

Recorded hERG current change (%, negative = inhibition) at 10uM (compound CCCN1CCC(=O)N(CCSc2ccc(OC)cc2)CC1 ): -45.4

Recorded hERG current change (%, negative = inhibition) at 10uM (compound CCOC(=O)c1ccc(NC(=S)NC2CCCC2)cc1 ): -7.86

Recorded hERG current change (%, negative = inhibition) at 10uM (compound CC(C)C[C@H]1C(=O)N2CCC[C@H]2[C@]2(O)O[C@](NC(=O)C3C=C4c5cccc6[nH]c(Br)c(c56)C[C@H]4N(C)C3)(C(C)C)C(=O)N12.CS(=O)(=O)O (stereo partly shown) ): 20.4

Recorded hERG current change (%, negative = inhibition) at 10uM (compound COc1ccc(SC[C@H](Cc2ccccc2)N2CC[C@@H](O)CCC2=O)cc1 ): -8.62

Recorded hERG current change (%, negative = inhibition) at 10uM (compound Cc1cccc(NC2=C(NC(=O)c3ccccc3)C(=O)c3ccccc3C2=O)c1 ): -19.4

Recorded hERG current change (%, negative = inhibition) at 10uM (compound COc1ccc(SC[C@H](CC(C)C)N2CCN(CCc3ccccc3)CCC2=O)cc1 ): -71.3

---

Would you mind telling me the reported hERG current change (%, negative = inhibition) at 10uM of each entry?
target: human ether-à-go-go-related gene (hERG) potassium channel (human); assay: primary screen, population patch clamp on CHO cells stably expressing hERG; higher = less effect of the substance;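 further: peak tail current of the secondary pulse compared with the same well before compound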
The whole screen tested about 310,000 compounds, of which about 14,000 (4.5%) showed an effect of 50% or more. Effects have a minus sign here. The sample holds strong results, similar compounds and a random draw of the others, so the mix is not that of the screen.
Reply numerically in %, unit not repeated.

Recorded hERG current change (%, negative = inhibition) at 10uM (compound O=c1[nH]c2ccc(Cl)cc2c(-c2ccccc2)c1CN1CCOCC1 ): -14.7

Recorded hERG current change (%, negative = inhibition) at 10uM (compound Cc1[nH]c2ccc(Br)cc2c(=O)c1CN1CCCCCC1 ): -64.3

Recorded hERG current change (%, negative = inhibition) at 10uM (compound COc1ccc(CCNC(=O)C2CC(c3ccc([N+](=O)[O-])cc3)=NO2)cc1 (stereo not shown) ): -61.6

Recorded hERG current change (%, negative = inhibition) at 10uM (compound COc1ccc(CNC(=O)C2CC(c3ccccc3[N+](=O)[O-])=NO2)cc1 (stereo not shown) ): -27.7

Recorded hERG current change (%, negative = inhibition) at 10uM (compound O=c1[nH]c2ccc(Br)cc2c(-c2ccccc2)c1N1CCOCC1 ): 7.5

Recorded hERG current change (%, negative = inhibition) at 10uM (compound NS(=O)(=O)c1cccc(-n2cnnn2)c1 ): -6.93

Recorded hERG current change (%, negative = inhibition) at 10uM (compound O=C(NCc1ccc(OC(F)(F)F)cc1)C1CC(c2ccccc2[N+](=O)[O-])=NO1 (stereo not shown) ): -68.3

---

target: human ether-à-go-go-related gene (hERG) potassium channel (human, UniProt Q12809); test: primary screen, population patch clamp on CHO cells stably expressing hERG; higher = less effect of the substance;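 further: peak tail current of the secondary pulse compared with the same well before compound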
Sequence (Q12809 whole entry, looked up): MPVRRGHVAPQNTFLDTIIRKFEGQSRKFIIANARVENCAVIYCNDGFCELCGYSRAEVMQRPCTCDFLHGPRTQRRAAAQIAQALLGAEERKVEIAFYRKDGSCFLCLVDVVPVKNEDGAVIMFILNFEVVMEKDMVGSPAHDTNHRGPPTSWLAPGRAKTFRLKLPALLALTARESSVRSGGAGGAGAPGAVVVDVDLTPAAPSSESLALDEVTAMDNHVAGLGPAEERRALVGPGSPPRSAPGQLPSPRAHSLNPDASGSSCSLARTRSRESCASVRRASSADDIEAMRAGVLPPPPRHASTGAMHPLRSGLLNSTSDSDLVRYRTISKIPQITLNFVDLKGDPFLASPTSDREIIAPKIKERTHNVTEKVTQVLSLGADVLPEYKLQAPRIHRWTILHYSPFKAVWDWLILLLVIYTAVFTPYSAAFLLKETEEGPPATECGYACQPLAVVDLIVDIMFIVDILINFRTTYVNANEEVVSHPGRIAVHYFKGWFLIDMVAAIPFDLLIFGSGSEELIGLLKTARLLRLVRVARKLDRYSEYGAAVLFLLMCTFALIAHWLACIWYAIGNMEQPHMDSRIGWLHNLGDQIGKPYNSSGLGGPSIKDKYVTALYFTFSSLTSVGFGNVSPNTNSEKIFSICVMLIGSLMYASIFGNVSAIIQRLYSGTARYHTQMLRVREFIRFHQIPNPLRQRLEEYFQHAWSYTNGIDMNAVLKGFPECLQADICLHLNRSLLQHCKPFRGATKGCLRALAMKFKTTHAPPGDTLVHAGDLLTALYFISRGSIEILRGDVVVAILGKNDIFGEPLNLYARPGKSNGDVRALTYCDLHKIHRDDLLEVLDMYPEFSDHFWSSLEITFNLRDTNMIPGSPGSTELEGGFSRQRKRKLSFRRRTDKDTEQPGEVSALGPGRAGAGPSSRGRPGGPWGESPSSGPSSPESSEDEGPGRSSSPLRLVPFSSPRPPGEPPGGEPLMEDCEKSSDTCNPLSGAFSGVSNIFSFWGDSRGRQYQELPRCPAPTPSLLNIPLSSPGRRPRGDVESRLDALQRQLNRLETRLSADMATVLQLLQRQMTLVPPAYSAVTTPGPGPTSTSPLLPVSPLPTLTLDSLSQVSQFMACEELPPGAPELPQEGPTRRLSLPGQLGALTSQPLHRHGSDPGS
About 14,000 (4.5%) of roughly 310,000 compounds showed an effect of 50% or more. The effect is printed as a negative number. The sample holds strong results, similar compounds and a random draw of the others, so the mix is not that of the screen.
Would you mind telling me the reported hERG current change (%, negative = inhibition) at 10uM of each entry?
Reply numerically in %, unit not repeated.

Recorded hERG current change (%, negative = inhibition) at 10uM (compound NC(=O)c1ccccc1NC(=O)N1CCOCC1 ): -2.02

Recorded hERG current change (%, negative = inhibition) at 10uM (compound OCCC1CN(Cc2ccc(F)cc2)CCN1CCCc1ccccc1 (stereo not shown) ): -68.2

Recorded hERG current change (%, negative = inhibition) at 10uM (compound Cc1cc(=O)n2c3ccccc3n(CC(O)CN3CCCC3)c2c1C#N (stereo not shown) ): -44.8

Recorded hERG current change (%, negative = inhibition) at 10uM (compound COc1ccc(N2CCN(Cc3nnnn3C3CCCCC3)CC2)cc1 ): 6.34

Recorded hERG current change (%, negative = inhibition) at 10uM (compound CN(C)c1ccnc(N(Cc2ccccc2)Cc2ccccc2)c1C#N.Cl ): -6.74

Recorded hERG current change (%, negative = inhibition) at 10uM (compound Cc1cc(S(=O)(=O)Nc2cccc(C(=O)O)c2)c(C)c(S(=O)(=O)c2ccc(Cl)cc2)c1 ): 18.8

Recorded hERG current change (%, negative = inhibition) at 10uM (compound Cc1ccn2c(Nc3ccccc3)c(-c3ccccn3)nc2c1 ): -10.8

Recorded hERG current change (%, negative = inhibition) at 10uM (compound Cc1cc(=O)n2c3ccccc3n(CC(O)CN3CCN(Cc4ccccc4)CC3)c2c1C#N (stereo not shown) ): -62.8

Recorded hERG current change (%, negative = inhibition) at 10uM (compound Clc1ccc(-c2nc3cnccn3c2Nc2ccc3c(c2)OCO3)cc1 ): -18.4

Recorded hERG current change (%, negative = inhibition) at 10uM (compound O=C(CCN1C(=O)/C(=C/c2cccs2)SC1=S)Nc1ccccc1O ): 13.7

Recorded hERG current change (%, negative = inhibition) at 10uM (compound COc1ccc(NC(=O)CCN2CCN(C/C=C/c3ccccc3)CC2)cc1 ): -77.3

Recorded hERG current change (%, negative = inhibition) at 10uM (compound COc1ccc(S(=O)(=O)N=C2C=C(C)C(=O)C(C)=C2)cc1 ): -8.48

Recorded hERG current change (%, negative = inhibition) at 10uM (compound CCN(CCC(=O)Nc1cc(OC)cc(OC)c1)Cc1ccccc1 ): -65.1

Recorded hERG current change (%, negative = inhibition) at 10uM (compound CNC(=O)NC(=O)COC(=O)c1n[nH]c2ccccc12 ): 16.5

Recorded hERG current change (%, negative = inhibition) at 10uM (compound CN1CCN(Cc2nnc(-c3ccccc3)o2)CC1 ): 22.7

Recorded hERG current change (%, negative = inhibition) at 10uM (compound Cn1c(/C(C#N)=C2/CCCCCN2)nc2ccccc21 ): -12.5

Data origin: paper PMC4336329
